# assay-target: LPA/S1P GPCR of interest (Homo sapiens)
# Construct: host or cells: CHO
# Sequence (Q92633 whole entry): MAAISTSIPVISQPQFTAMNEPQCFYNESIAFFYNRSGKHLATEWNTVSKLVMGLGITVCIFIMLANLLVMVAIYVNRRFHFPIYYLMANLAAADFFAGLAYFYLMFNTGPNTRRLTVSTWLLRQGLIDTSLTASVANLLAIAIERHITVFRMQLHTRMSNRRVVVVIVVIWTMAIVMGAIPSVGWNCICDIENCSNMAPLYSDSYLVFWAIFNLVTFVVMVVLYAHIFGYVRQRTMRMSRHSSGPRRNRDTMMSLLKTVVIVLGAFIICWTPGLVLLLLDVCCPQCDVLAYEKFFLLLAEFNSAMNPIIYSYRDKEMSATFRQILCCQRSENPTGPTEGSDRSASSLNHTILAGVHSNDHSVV
# experimental-details: Beta-Arrestin based assay (PathHunter)
# Type: cell-based
pEC50: −log10 of the molar value.
List of pEC50 values.

>>> result("Cc1noc(-c2ccc(-c3ccc(Oc4cccc(C(=O)O)c4)cc3)cc2)c1NC(=O)O[C@H](C)c1ccccc1")
"6.30 to 7.30"

**Q:** Look up pEC50 for this compound: CCC(C)OC(=O)Nc1c(C)noc1-c1ccc(-c2ccc(Oc3ccccc3C(=O)O)cc2)cc1 (single isomer, unassigned) [IT494]
**A:** > 7.30

**Q:** Look up pEC50 for this compound: "Cc1nnn(-c2ccc(-c3cc(F)c(Oc4cccnc4C(=O)O)c(F)c3)cc2)c1NC(=O)O[C@H](C)c1ccccc1"
**A:** > 7.30

**Q:** Look up pEC50 for this compound: "C[C@@H](OC(=O)Nc1c(-c2cc3sc(-c4cc(F)c(C5(C(=O)O)CC5)cc4F)cc3s2)cnn1C)c1ccccc1"
**A:** > 7.30

**Q:** Look up pEC50 for this compound: Cc1noc(-c2ccc(-c3ccc4c(c3)CCCC4C(=O)O)cc2)c1NC(=O)O[C@H](C)c1ccccc1 (mixture of isomers)
**A:** 6.30 to 7.30

**Q:** Look up pEC50 for this compound: "C[C@@H](OC(=O)Nc1ocnc1C#Cc1cc2sc(C3(C(=O)O)CC3)cc2s1)c1ccccc1"
**A:** < 6.30

**Q:** Look up pEC50 for this compound: "Cc1noc(-c2ccc(-c3cc(F)c(Oc4nccnc4C(=O)O)c(F)c3)cc2)c1NC(=O)O[C@H](C)c1ccccc1"
**A:** > 7.30

---

# assay-target: UniProt:Q92633
# experimental-details: LPA1 Migration Assay (Oris)
# experimental-parameters: read-out: Cell Migration EC50
List of EC50 values.

Completed entries (count: 4):
>>> result("C[C@@H](OC(=O)Nc1c(C#Cc2ccc(Oc3ccccc3C(=O)O)cc2)cnn1C)c1ccccc1")
"50 to 500 nM"
>>> result("C[C@@H](OC(=O)Nc1c(-c2ccc(-c3cc(F)c(OC(C)(C)C(=O)O)c(F)c3)cc2)cnn1C)c1ccccc1")
"> 500 nM"
>>> result("Cc1noc(-c2ccc(-c3ccc(OC(C)(C)C(=O)O)c(F)c3)cc2)c1NC(=O)O[C@H](C)c1ccccc1")
"50 to 500 nM"
>>> result("C[C@@H](OC(=O)Nc1c(-c2ccc(-c3ccc(Oc4cccc(F)c4C(=O)O)cc3)cc2)cnn1C)c1ccccc1")
"50 to 500 nM"

**Q:** Request - read-out EC50 | tested on UniProt:Q92633 | compound "CCOc1cc(CC(=O)O)ccc1-c1cc2sc(-c3nnn(C)c3NC(=O)O[C@H](C)c3ccccc3)cc2s1"
**A:** > 500 nM

**Q:** Request - read-out EC50 | tested on UniProt:Q92633 | compound "C[C@@H](OC(=O)Nc1c(-c2ccc(-c3ccc(C4(C(=O)O)CCOCC4)cc3)cc2)cnn1C)c1ccccc1"
**A:** > 500 nM

**Q:** Request - read-out EC50 | tested on UniProt:Q92633 | compound "C[C@@H](OC(=O)Nc1c(-c2ccc(-c3ccc(C4(C(=O)O)CC4)c4c3CCC4)cc2)cnn1C)c1ccccc1"
**A:** 50 to 500 nM

**Q:** Request - read-out EC50 | tested on UniProt:Q92633 | compound "Cc1noc(-c2ccc(-c3ccc(Oc4ccsc4C(=O)O)cc3)cc2)c1NC(=O)O[C@H](C)c1ccccc1"
**A:** 50 to 500 nM

**Q:** Request - read-out EC50 | tested on UniProt:Q92633 | compound "C[C@@H](OC(=O)Nc1c(-c2ccc(-c3cc(F)c(Oc4ccncc4C(=O)O)c(F)c3)cc2)nnn1C)c1ccccc1"
**A:** < 50 nM

**Q:** Request - read-out EC50 | tested on UniProt:Q92633 | compound "Cc1onc(-c2cc3sc(C#CC4(C(=O)O)CC4)cc3s2)c1NC(=O)O[C@H](C)c1ccccc1"
**A:** 50 to 500 nM

---

List of EC50 values.
# assay-target: LPA/S1P GPCR of interest (Homo sapiens)
# experimental-details: Beta-Arrestin based assay (PathHunter)

Completed entries (count: 5):
>>> result("C[C@@H](OC(=O)Nc1c(-c2cc3sc(-c4cc(F)c(CC(=O)O)cc4F)cc3s2)nnn1C)c1ccccc1")
"50 to 500 nM"
>>> result("Cc1cc(-c2cc3sc(-c4cnn(C)c4NC(=O)O[C@H](C)c4ccccc4)cc3s2)c(F)cc1C1(C(=O)O)CC1")
"50 to 500 nM"
>>> result("C[C@@H](OC(=O)Nc1c(-c2cc3sc(-c4ccc(C5(C(=O)O)CC5)c(F)c4F)cc3s2)nnn1C)c1ccccc1")
"< 50 nM"
>>> result("Cc1noc(-c2ccc(-c3nc4sc(C5(C(=O)O)CC5)cc4s3)cc2)c1NC(=O)O[C@H](C)c1ccccc1")
"< 50 nM"
>>> result("C[C@@H](OC(=O)Nc1c(-c2ccc(-c3cc(F)c(Oc4ncccc4C(=O)O)c(F)c3)cc2)cnn1C)c1ccccc1")
"< 50 nM"

**Q:** Look up EC50 for this compound: "C[C@@H](OC(=O)Nc1c(-c2cc3sc(-c4ccc(C5(C(=O)O)CC5)c(C(F)(F)F)c4)cc3s2)nnn1C)c1ccccc1"
**A:** 50 to 500 nM

**Q:** Look up EC50 for this compound: "Cc1noc(-c2ccc(-c3ccc(Oc4ccsc4C(=O)O)cc3)cc2)c1NC(=O)O[C@H](C)c1ccccc1"
**A:** < 50 nM

**Q:** Look up EC50 for this compound: "C[C@@H](OC(=O)Nc1c(-c2cc3sc(-c4cc(F)c(CC(=O)O)c(F)c4)cc3s2)nnn1C)c1ccccc1"
**A:** 50 to 500 nM

**Q:** Look up EC50 for this compound: "COc1cc(CC(=O)O)ccc1-c1cc2sc(-c3snc(C)c3NC(=O)O[C@H](C)c3ccccc3)cc2s1"
**A:** > 500 nM

**Q:** Look up EC50 for this compound: "CCOC(=O)c1cccnc1Oc1c(F)cc(-c2ccc(-c3nnn(C)c3NC(=O)O[C@H](C)c3ccccc3)cc2)cc1F"
**A:** < 50 nM

**Q:** Look up EC50 for this compound: "C[C@@H](OC(=O)Nc1c(-c2cc3sc(-c4ccc(CC(=O)O)cc4C(F)(F)F)cc3s2)cnn1C)c1ccccc1"
**A:** > 500 nM

**Q:** Look up EC50 for this compound: "C[C@@H](OC(=O)Nc1c(-c2ccc(-c3ccc(CC(=O)O)s3)cc2)nnn1C)c1ccccc1"
**A:** 50 to 500 nM

**Q:** Look up EC50 for this compound: "C[C@@H](OC(=O)Nc1c(-c2ccc(C#CC(=O)NCCC(=O)O)cc2)cnn1C)c1ccccc1"
**A:** > 500 nM

---

List of IC50 values.
# assay-target: LPA1 (Homo sapiens, UniProt Q92633)
# Sequence (Q92633 whole entry): as above
# experimental-details: Ca Flux LPA1 assay

>>> result("C[C@@H](OC(=O)Nc1c(-c2ccc(-c3ccc(C4(C(=O)O)CC4)c4c3CCC4)cc2)cnn1C)c1ccccc1")
"< 50 nM"
>>> result("Cc1noc(-c2ccc(-c3cc(F)c(Oc4ccccc4C(=O)O)c(F)c3)cc2)c1NC(=O)O[C@H](C)c1ccccc1Cl")
"> 500 nM"
>>> result("C[C@@H](OC(=O)Nc1c(-c2ccc(-c3ccc(Oc4ccccc4C(=O)O)cc3)cc2)nnn1C)c1ccccc1")
"< 50 nM"
>>> result("Cc1noc(-c2ccc(-c3ccc(Oc4cccnc4C(=O)O)cc3)cc2)c1NC(=O)O[C@H](C)c1ccccc1")
"50 to 500 nM"
>>> result("Cc1noc(-c2ccc(-c3ccc(C4(C(=O)O)CC(F)(F)C4)cc3)cc2)c1NC(=O)O[C@H](C)c1ccccc1")
"50 to 500 nM"

**Q:** Look up IC50 for this compound: "Cc1noc(-c2ccc(NC(=O)c3coc(C4(C(=O)O)CC4)c3)cc2)c1NC(=O)O[C@H](C)c1ccccc1"
**A:** < 50 nM

**Q:** Look up IC50 for this compound: Cc1noc(-c2ccc(-c3ccc(C4(C(=O)O)CC4(F)F)cc3)cc2)c1NC(=O)O[C@H](C)c1ccccc1 (some centres unmarked)
**A:** 50 to 500 nM

**Q:** Look up IC50 for this compound: "C[C@@H](OC(=O)Nc1c(-c2ccc(-c3ccc(C4(C(=O)O)CCOCC4)cc3)cc2)cnn1C)c1ccccc1"
**A:** 50 to 500 nM

**Q:** Look up IC50 for this compound: "Cc1noc(C#Cc2nc3sc(C4(C(=O)O)CC4)cc3s2)c1NC(=O)O[C@H](C)c1ccccc1"
**A:** < 50 nM

**Q:** Look up IC50 for this compound: "Cc1noc(-c2ccc(-c3ccc(Oc4ccccc4C(=O)O)nc3)cc2)c1NC(=O)O[C@H](C)c1ccccc1"
**A:** < 50 nM

**Q:** Look up IC50 for this compound: "Cc1noc(-c2ccc(-c3ccc(Oc4c(F)cccc4C(=O)O)c(F)c3)cc2)c1NC(=O)O[C@H](C)c1ccccc1"
**A:** 50 to 500 nM

**Q:** Look up IC50 for this compound: "C[C@@H](OC(=O)Nc1c(-c2ccc(-c3ccc(C4(C(=O)O)CC4)cc3)cc2)oc2ccccc12)c1ccccc1"
**A:** > 500 nM

**Q:** Look up IC50 for this compound: "C[C@@H](OC(=O)Nc1c(C#Cc2cc3sc(C4(C(=O)NS(C)(=O)=O)CC4)cc3s2)cnn1C)c1ccccc1"
**A:** < 50 nM

**Q:** Look up IC50 for this compound: "Cc1noc(-c2ccc(-c3ccc(C(F)(F)C(=O)O)cc3)cc2)c1NC(=O)O[C@H](C)c1ccccc1"
**A:** 50 to 500 nM

**Q:** Look up IC50 for this compound: "Cc1nnn(-c2ccc(-c3cc(F)c(Oc4ccccc4C(=O)O)c(F)c3)cc2)c1NC(=O)O[C@H](C)c1ccccc1"
**A:** < 50 nM

**Q:** Look up IC50 for this compound: "Cc1c(C2(C(=O)O)CC2)sc2cc(C#Cc3cnn(C)c3NC(=O)O[C@H](C)c3ccccc3)sc12"
**A:** < 50 nM

**Q:** Look up IC50 for this compound: "CCc1nc(C(=O)O)c(Oc2ccc(-c3ccc(-c4onc(C)c4NC(=O)O[C@H](C)c4ccccc4)cc3)cc2)o1"
**A:** 50 to 500 nM

**Q:** Look up IC50 for this compound: "C[C@@H](OC(=O)Nc1c(-c2ccc(-c3cc(F)c(Oc4ncccc4C(=O)O)c(F)c3)cc2)nnn1C)c1ccccc1"
**A:** < 50 nM

**Q:** Look up IC50 for this compound: "COC(=O)C1(c2cc3sc(C#Cc4cnn(C)c4NC(=O)O[C@H](C)c4ccccc4)cc3s2)CC1"
**A:** 50 to 500 nM

**Q:** Look up IC50 for this compound: "Cc1noc(-c2ccc(-c3nc4sc(C5(C(=O)O)CC5)cc4s3)cc2)c1NC(=O)O[C@H](C)c1ccccc1"
**A:** 50 to 500 nM

**Q:** Look up IC50 for this compound: "Cc1nnn(-c2ccc(-c3cc(F)c(Oc4ncccc4C(=O)O)c(F)c3)cc2)c1NC(=O)O[C@H](C)c1ccccc1"
**A:** < 50 nM

**Q:** Look up IC50 for this compound: C[C@@H](OC(=O)Nc1c(-c2ccc(-c3ccc(Oc4ccccc4C(=O)O)cc3)cc2)oc2ccccc12)c1ccccc1 (single isomer, unassigned)
**A:** > 500 nM

**Q:** Look up IC50 for this compound: "Cc1nsc(-c2ccc(-c3cc(F)c(Oc4ncccc4C(=O)O)c(F)c3)cc2)c1NC(=O)O[C@H](C)c1ccccc1"
**A:** 50 to 500 nM

**Q:** Look up IC50 for this compound: "Cc1cc(C2(C(=O)O)CC2)c(F)cc1-c1cc2sc(-c3nnn(C)c3NC(=O)O[C@H](C)c3ccccc3)cc2s1"
**A:** 50 to 500 nM

**Q:** Look up IC50 for this compound: "Cn1ncc(C#Cc2cc3sc(C4(C(=O)O)CC4)cc3s2)c1NC(=O)O[C@@H](c1ccccc1)C(F)(F)F"
**A:** 50 to 500 nM

**Q:** Look up IC50 for this compound: "Cc1nsc(-c2cc3sc(-c4ccc(C5(C(=O)O)CC5)cc4)cc3s2)c1NC(=O)O[C@H](C)c1ccccc1"
**A:** > 500 nM
